In this section we review reported EC50 values for a set of compounds.
test-system: RORγ-LBD (Homo sapiens, UniProt P51449)
Construct: made in house; host or cells: SF9 cells (baculovirus); used as diluted lysate
experiment-summary: RORγ-Ligand Binding Domain (LBD) TR-FRET Assay
Type: biochemical
reported-conditions: RORγ-LBD TR-FRET assay

* COc1cc(S(=O)(=O)C2CC(CC(C)(C)C(=O)O)Oc3ccc(OCc4c(F)cccc4Cl)cc32)ccc1F (stereo not shown) [Example 186C] | < 500 nM
* C/C(=C\c1ccc2c(c1)N(S(=O)(=O)c1cccc(C(F)(F)F)c1)C[C@H](CCN1CCC[C@H]1C(=O)O)O2)c1c(F)cccc1Cl [Example 124] | < 500 nM
* C/C(=C\c1ccc2c(c1)N(S(=O)(=O)c1cccc(C(F)(F)F)c1)C[C@H](CCN1CCCC1)O2)c1c(F)cccc1Cl [Example 118] | < 500 nM
* CCOC(=O)C(C)(C)CC1CC(S(=O)(=O)c2ccc(F)c(OC)c2)c2cc(OCc3c(F)cccc3Cl)ccc2O1 (stereo not shown) [Example 185] | < 500 nM
* COC(=O)C(C)(C)C[C@@H]1Cc2ccc(/C=C/c3c(F)cccc3Cl)cc2N(S(=O)(=O)c2ccc(F)c(OC)c2)C1 [Example 153] | < 500 nM

Exam item: Enter reported EC50 observed with RORγ-LBD (Homo sapiens, UniProt P51449) for CCn1cc(S(=O)(=O)N2C[C@H](CNC(C)=O)Oc3c(F)cc(/C=C(\C)c4c(F)cccc4Cl)cc32)c(Cl)n1 [Example 109A]
Marked response: < 500 nM

Exam item: What about this compound? CC(=O)N[C@@H]1Cc2ccc(/C=C(\C)c3c(F)cccc3Cl)cc2N(S(=O)(=O)c2cccc(C(F)(F)F)c2)C1 [Example 165]
Marked response: < 500 nM

Exam item: What about this compound? O=C(CC[C@H]1CN(S(=O)(=O)c2cccc(C(F)(F)F)c2)c2cc(/C=C/c3c(F)cccc3Cl)ccc2O1)N1CC2(COC2)C1 [Example 127I]
Marked response: < 500 nM

* * *

test-system: Gal4-RORγ-LBD (Homo sapiens, UniProt P51449)
Construct: expressed in transfected cells
experiment-summary: Gal4-RORγ Luciferase Reporter Assay in HEK-293T Cells
Format: cell-based
reported-conditions: HEK-293 cells, luciferase reporter, with ursolic acid
In this section we review reported EC50 values for a set of compounds.

Example results:
* CCn1cc(S(=O)(=O)N2C[C@H]([C@@H](C)O)Oc3ccc(/C=C(\C)c4c(F)cccc4Cl)cc32)c(Cl)n1 | 500 to 5000 nM
* CCOc1nn(CC)cc1S(=O)(=O)N1C[C@H](CCC(=O)O)Oc2ccc(/C=C/c3c(F)cccc3C(F)(F)F)cc21 | 500 to 5000 nM
* C/C(=C\c1ccc2c(c1)N(S(=O)(=O)c1cccc(C(F)(F)F)c1)CC(C(=O)O)C2)c1c(F)cccc1C(F)(F)F (centres unmarked) [Example 15C] | 500 to 5000 nM
* COC(=O)CC[C@H]1CN(S(=O)(=O)c2cccc(OC(F)F)c2)c2cc(/C=C/c3ccccc3C#N)ccc2O1 [Example 89AR] | 500 to 5000 nM
* C/C(=C\c1ccc2c(c1)N(S(=O)(=O)c1ccc(F)c(OC(F)F)c1)C[C@H](CCC(=O)O)O2)c1c(F)cccc1Cl [Example 86AS] | < 500 nM

Exam item: EC50 for CCOc1ncc(C(F)(F)F)cc1S(=O)(=O)N1C[C@H](CCC(=O)O)Oc2ccc(/C=C/c3c(Cl)cccc3C(F)(F)F)cc21 [Example 89DM] ?
Marked response: < 500 nM

Exam item: What about this compound? COC(=O)CC[C@H]1CN(S(=O)(=O)c2cccc(C(F)(F)F)c2)c2cc(/C=C/c3ccccn3)ccc2O1 [Example 89DH]
Marked response: 500 to 5000 nM

Exam item: What about this compound? COC(=O)C(C)(C)C[C@@H]1Cc2ccc(OCc3c(F)cccc3Cl)cc2N(S(=O)(=O)c2ccc(F)c(OC)c2)C1
Marked response: < 500 nM

Exam item: What about this compound? COC(=O)CC[C@H]1CN(S(=O)(=O)c2cccc(OC(F)F)c2)c2cc(/C=C/c3c(F)cccc3Cl)ccc2O1 [Example 89B]
Marked response: 500 to 5000 nM

Exam item: What about this compound? O=C(O)CC[C@H]1CN(S(=O)(=O)c2cccc(C(F)(F)F)c2)c2cc(/C=C/c3cccc(F)c3Cl)ccc2O1 [Example 89BP]
Marked response: > 10000 nM

Exam item: What about this compound? CC/C(=C\c1ccc2c(c1)N(S(=O)(=O)c1cccc(C(F)(F)F)c1)C[C@H](CCC(=O)OC)O2)c1ccccc1 [Example 36B]
Marked response: > 10000 nM

Exam item: What about this compound? CCOc1ncc(Cl)cc1S(=O)(=O)N1C[C@H](CCC(=O)OC)Oc2ccc(/C=C/c3c(F)cccc3Cl)cc21 [Example 89CW]
Marked response: 500 to 5000 nM

Exam item: What about this compound? CCOc1ncc(C(F)(F)F)cc1S(=O)(=O)N1C[C@H](CCC(=O)O)Oc2ccc(/C=C(\C)c3c(F)cccc3Cl)cc21
Marked response: 500 to 5000 nM

Exam item: What about this compound? O=C(O)CC[C@H]1CN(S(=O)(=O)c2cccc(C(F)(F)F)c2)c2cc(/C=C/c3ncccc3F)ccc2O1 [Example 89CE]
Marked response: 500 to 5000 nM

* * *

In this section we review reported pEC50 values for a set of compounds.
test-system: Gal4-RORγ-LBD (Homo sapiens, UniProt P51449)
Construct: expressed in transfected cells
Sequence (P51449 269-508 limits assumed): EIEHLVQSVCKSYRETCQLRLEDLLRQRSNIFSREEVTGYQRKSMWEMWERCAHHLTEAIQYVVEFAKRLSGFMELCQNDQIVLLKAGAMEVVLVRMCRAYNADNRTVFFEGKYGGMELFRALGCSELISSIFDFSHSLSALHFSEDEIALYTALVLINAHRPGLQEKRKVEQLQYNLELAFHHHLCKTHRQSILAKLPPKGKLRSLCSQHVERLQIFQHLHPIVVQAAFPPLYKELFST
experiment-summary: Gal4-RORγ Luciferase Reporter Assay in HEK-293T Cells
Assay type: cell-based
reported-conditions: HEK-293 cells, luciferase reporter, with ursolic acid
pEC50: −log10 of the molar value.

Example results:
* CCOc1ncc(C(F)(F)F)cc1S(=O)(=O)N1C[C@H](CCC(=O)O)Oc2ccc(/C=C/c3c(Cl)cccc3OC)cc21 [Example 89FA] | > 6.30
* CCOc1nn(CC)cc1S(=O)(=O)N1C[C@H](CCC(=O)OC)Oc2ccc(/C=C/c3ccccc3C)cc21 [Example 89AT] | 5.30 to 6.30
* CC1CCC/C(=C\c2ccc3c(c2)N(S(=O)(=O)c2cccc(C(F)(F)F)c2)C[C@H](CCC(=O)O)O3)C1 (stereo partly drawn) [Example 95G] | 5.30 to 6.30

Exam item: pEC50 for O=C(O)CC[C@H]1CN(S(=O)(=O)c2cccc(C(F)(F)F)c2)c2cc(/C=C/c3cccnc3C(F)(F)F)ccc2O1 [Example 89CK] ?
Marked response: 5.30 to 6.30

Exam item: What about this compound? O=C(O)CC[C@H]1CN(S(=O)(=O)c2cc(C(F)(F)F)cnc2OCC(O)CO)c2cc(/C=C/c3c(F)cccc3Cl)ccc2O1 (stereo partly drawn) [Example 89FJ]
Marked response: 5.30 to 6.30

Exam item: What about this compound? COC(=O)CC[C@H]1CN(S(=O)(=O)c2ccc(F)c(OC(F)F)c2)c2cc(/C=C(\C)c3c(F)cccc3Cl)ccc2O1 [Example 86AT]
Marked response: > 6.30

* * *

test-system: Gal4-RORγ-LBD (Homo sapiens, UniProt P51449)
Construct: expressed in transfected cells
experiment-summary: Gal4-RORγ Luciferase Reporter Assay in HEK-293T Cells
Type: cell-based
reported-conditions: HEK-293 cells, luciferase reporter, with ursolic acid
In this section we review reported EC50 values for a set of molecules.

Example results:
• COC(=O)CC[C@H]1CN(S(=O)(=O)c2cccc(C(F)F)c2)c2cc(/C=C/c3c(Cl)cccc3C(F)(F)F)ccc2O1 = < 500 nM
• O=C(O)CC[C@H]1CN(S(=O)(=O)c2cccc(C(F)(F)F)c2)c2cc(/C=C3\CC4CCC3C4)ccc2O1 (stereo partly drawn) [Example 95S] = < 500 nM
• CC(F)(F)c1cccc(Cl)c1/C=C/c1ccc2c(c1)N(S(=O)(=O)c1cc(C(F)(F)F)cnc1OCCO)C[C@H](CCC(=O)O)O2 [Example 89FI] = < 500 nM

Exam item: EC50 for C/C(=C\c1ccc2c(c1)N(S(=O)(=O)c1cccc(C(F)(F)F)c1C)C[C@H](CCC(=O)O)O2)c1c(F)cccc1Cl [Example 86AM] ?
Marked response: 500 to 5000 nM

Exam item: What about this molecule? COC(=O)CC[C@H]1CN(S(=O)(=O)c2ccc(F)c(C(F)(F)F)c2)c2cc(/C=C(\C)c3c(F)cccc3Cl)ccc2O1 [Example 86B]
Marked response: < 500 nM

Exam item: What about this molecule? C/C(=C\c1ccc2c(c1)N(S(=O)(=O)c1ccc(F)c(Cl)c1)C[C@H](CCC(=O)O)O2)c1c(F)cccc1Cl [Example 86E]
Marked response: 500 to 5000 nM
